Examples of compounds with documented ID50 follow.
target: Human immunodeficiency virus type 1 reverse transcriptase (Human immunodeficiency virus 1) (UniProt Q72547)
Dear colleague, please return just the value in µM, with no unit written.

Here are 4 compounds together with their reported answers.
1) COC(c1nc(NC2CCCC2)[nH]c(=O)c1C)c1c(F)cccc1Cl (stereo unspecified) | 0.04
2) CCCNc1nc(C(C)c2c(F)cccc2F)c(C)c(=O)[nH]1 (stereo unspecified) | 0.04
3) COC(c1nc(SC(C)C)[nH]c(=O)c1C)c1c(F)cccc1F (stereo unspecified) | 0.008
4) CCCNc1nc(C(OC)c2c(F)cccc2F)c(C)c(=O)[nH]1 (stereo unspecified) | 0.04

Shifting focus to the compound that follows.
Request: # query: ID50 of entry CCCN(C)c1nc([C@H](OC)c2c(Cl)cccc2Cl)c(C)c(=O)[nH]1
Result: 0.008

----------
assay: Therapeutic index, ratio of CC50 for human MT4 cells to EC50 for HIV-1 NL4-3 infected in human MT4 cells; format: toxicity, cell-based; details: read-out: Ratio CC50/EC50
Examples of compounds with documented selectivity ratio follow.

Here are 5 compounds together with their reported answers.
1) CO[C@H](c1nc(SC(C)C)[nH]c(=O)c1C)c1c(F)cccc1Cl | > 1160
2) CCC(C)Sc1nc(C(CC)c2c(F)cccc2F)c(C)c(=O)[nH]1 (stereo unspecified) | > 3750
3) COC(c1nc(SC(C)C)[nH]c(=O)c1C)c1c(F)cccc1F (stereo unspecified) | > 1470
4) CCCN(C)c1nc(C(C)c2c(F)cccc2F)c(C)c(=O)[nH]1 (stereo unspecified) | > 41000
5) CO[C@@H](c1nc(SC(C)C)[nH]c(=O)c1C)c1c(F)cccc1Cl | > 722000

Shifting focus to the compound that follows.
Request: # query: selectivity ratio of entry Cc1c(C(C)c2c(F)cccc2Cl)nc(SC(C)C)[nH]c1=O (stereo unspecified)
Result: > 375000

----------
system: Human immunodeficiency virus 1; assay: Resistance index, ratio of EC50 for HIV-1 harboring reverse transcriptase Y181C mutant to EC50 for wild type HIV-1 NL4-3; type: functional
Binary classification by Ratio EC50, with 20 as an inclusive lower bound for YES; all other cases are NO.

Below, 5 compounds whose answers are already recorded.
1) CO[C@@H](c1nc(SC(C)C)[nH]c(=O)c1C)c1c(F)cccc1Cl | NO
2) COC(c1nc(SC2CCCC2)[nH]c(=O)c1C)c1c(F)cccc1F (configuration not stated) | YES
3) Cc1c([C@H](C)c2c(F)cccc2F)nc(SC2CCCC2)[nH]c1=O | YES
4) Cc1cc(C#N)cc(C)c1Oc1nc(Nc2ccc(C#N)cc2)nc(N)c1Br | NO
5) COC(c1nc(NC2CCCC2)[nH]c(=O)c1C)c1c(Cl)cccc1Cl (configuration not stated) | YES

Request: Can COC(c1nc(SC(C)C)[nH]c(=O)c1C)c1c(Cl)cccc1Cl (configuration not stated) be said to have Ratio EC50 at or above 20?
Result: YES

Request: Can CCCNc1nc(C(OC)c2c(Cl)cccc2Cl)c(C)c(=O)[nH]1 (configuration not stated) be said to have Ratio EC50 at or above 20?
Result: YES

Request: Can CCC(C)Sc1nc(C(OC)c2c(F)cccc2F)c(C)c(=O)[nH]1 (configuration not stated) be said to have Ratio EC50 at or above 20?
Result: YES

Request: Can Cc1c(C(C)c2c(F)cccc2F)nc(NC(C)C)[nH]c1=O (configuration not stated) be said to have Ratio EC50 at or above 20?
Result: NO
